test: Stability of ingredients in gastric pH solution (pH 1.2, 37°C); type: physicochemical; settings: 0.5 h, pH 1.2
endpoint label: Stability in gastric pH solution, Quantitative value

# Stability in gastric pH solution, Quantitative value lookup, item COc1ccc([C@@H]2CC(=O)c3c(O)cc(O)cc3O2)cc1O
4.38 ng/mL

Another compound to check: COc1ccc(-c2oc3c(OC)c(OC)c(OC)c(OC)c3c(=O)c2OC)cc1OC
25.5 ng/mL

Another compound to check: COc1ccc(-c2cc(=O)c3c(OC)c(OC)c(OC)c(OC)c3o2)cc1
5.50 ng/mL

Another compound to check: O=C1C[C@@H](c2ccc(O)cc2)Oc2cc(O)cc(O)c21
2030 ng/mL

###

test: Randomized crossover quantitative trial: plasma pharmacokinetics of nine ingredients after rikkunshito 2.5, 5.0 or 7.5 g; details: human, plasma, po, 5 g, AUC0-last, rikkunshito 5.0 g single oral, n = 19; geometric mean (95% CI)
// returns N unless AUC(0-t) is strictly below 0.1 ng·h/mL, in which case Y

Lab note: confirm whether the reported AUC(0-t) for this compound is below 0.1 ng·h/mL, equality not counting. compound: CC1(C)[C@@H](O)CC[C@]2(C)[C@H]3C(=O)C=C4[C@@H]5C[C@@](C)(C(=O)O)CC[C@]5(C)CC[C@@]4(C)[C@]3(C)CC[C@@H]12
N

Another compound to check: COc1ccc(-c2oc3c(OC)c(OC)c(OC)c(OC)c3c(=O)c2OC)cc1OC
N

Another compound to check: O=C1C[C@@H](c2ccc(O)cc2)Oc2cc(O)cc(O)c21
N

Another compound to check: O=C(/C=C/c1ccc(O)cc1)c1ccc(O)cc1O
Y

Another compound to check: O=C(O)/C=C/C#CC#C/C=C/c1ccco1
N

###

assay: Exploratory trial: amount of rikkunshito ingredients in urine; type: in vivo, human; settings: human, in vivo
Hi there, I'd appreciate the recorded Amount in urine, Pre for every entry that follows.
Phrase the answer as number then unit, nothing more needed.

# Amount in urine, Pre lookup, item COc1ccc([C@@H]2CC(=O)c3c(O)cc(O)cc3O2)cc1O
213 ± 390 ng

Another compound to check: CCCCC[C@H](O)CC(=O)CCc1ccc(O)c(OC)c1 [[6]-Gingerol, [6]-Gingerol]
18.6 ± 26.2 ng

Another compound to check: O=C1C[C@@H](c2ccc(O[C@@H]3O[C@H](CO)[C@@H](O)[C@H](O)[C@H]3O)cc2)Oc2cc(O)ccc21
15.7 ± 19.0 ng

Another compound to check: C[C@@H]1O[C@@H](O[C@H]2[C@H](Oc3cc(O)c4c(c3)O[C@H](c3ccc(O)cc3)CC4=O)O[C@H](CO)[C@@H](O)[C@@H]2O)[C@H](O)[C@H](O)[C@H]1O
70.7 ± 69.2 ng

###

Hi there, I'd appreciate the recorded concentration at 1 h for every entry that follows.
assay: Exploratory trial: plasma concentration of rikkunshito ingredients after single oral rikkunshito 7.5 g; type: in vivo; conditions: human, in vivo; 1 h after single oral rikkunshito 7.5 g; mean ± S.D., n = 4
Give the value, in units of ng/mL, as a plain number.

# concentration at 1 h lookup, item CC(C)=CCC[C@](C)(O[C@@H]1O[C@H](CO)[C@@H](O)[C@H](O)[C@H]1O)[C@H]1CC[C@]2(C)[C@@H]1[C@H](O)C[C@@H]1[C@@]3(C)CC[C@H](O[C@@H]4O[C@H](CO)[C@@H](O)[C@H](O)[C@H]4O[C@@H]4O[C@H](CO)[C@@H](O)[C@H](O)[C@H]4O)C(C)(C)[C@@H]3CC[C@]12C [Ginsenoside Rd]
0.0308

Another molecule to check: C/C=C/C#CC#C/C=C/c1ccco1 [Atractylodin]
1.38

###

assay: Exploratory trial: ingredients in β-glucuronidase (enzyme)-treated plasma; assay type: in vivo, human; settings: human, plasma, oral; β-glucuronidase-treated; 4 h; rikkunshito 7.5 g; mean ± S.D., n = 4; read-out: Plasma concentration in enzyme-treated plasma, 4 h
endpoint label: concentration at 4 h (ng/mL)
Give the value, in units of ng/mL, as a plain number.

# concentration at 4 h lookup, item O=C1C[C@@H](c2ccc(O)cc2)Oc2cc(O)cc(O)c21
0.861

Another compound to check: COc1c(CC=C(C)C)c(O)cc2oc(=O)c(-c3ccc(O)cc3O)cc12
0.371

Another compound to check: O=C(/C=C/c1ccc(O)cc1)c1ccc(O)cc1O
0.0698

###

assay: Dose proportionality (linearity) test by power model for C max and AUC0-last; conditions: Cmax; rikkunshito 2.5, 5.0 or 7.5 g
endpoint label: Dose proportionality test using power model, β
Output spec: single numeric token, no unit.

# Dose proportionality test using power model, β lookup, item C/C=C/C#CC#C/C=C/c1ccco1 [Atractylodin]
0.988

Another molecule to check: COc1ccc(-c2oc3c(OC)c(OC)c(OC)c(OC)c3c(=O)c2OC)cc1OC [Heptamethoxyflavone, 3,3′,4′,5,6,7,8-heptamethoxyflavone]
0.817

Another molecule to check: CC1(C)[C@@H](O)CC[C@]2(C)[C@H]3C(=O)C=C4[C@@H]5C[C@@](C)(C(=O)O)CC[C@]5(C)CC[C@@]4(C)[C@]3(C)CC[C@@H]12 [18β-Glycyrrhetinic acid]
0.819

###

experiment: Randomized crossover quantitative trial: plasma pharmacokinetics of nine ingredients after rikkunshito 2.5, 5.0 or 7.5 g; settings: human, plasma, po, 2.5 g, AUC0-last, rikkunshito 2.5 g single oral, n = 21; geometric mean (95% CI)
// returns Not met unless AUC(0-t) is strictly below 2 ng·h/mL, in which case Met

Lab note: confirm whether the reported AUC(0-t) for this molecule is below 2 ng·h/mL, equality not counting. molecule: COc1ccc(-c2oc3c(OC)c(OC)c(OC)c(OC)c3c(=O)c2OC)cc1OC
Met

Another molecule to check: CC1(C)[C@@H](O)CC[C@]2(C)[C@H]3C(=O)C=C4[C@@H]5C[C@@](C)(C(=O)O)CC[C@]5(C)CC[C@@]4(C)[C@]3(C)CC[C@@H]12
Not met

Another molecule to check: O=C(O)/C=C/C#CC#C/C=C/c1ccco1
Not met

Another molecule to check: O=C(/C=C/c1ccc(O)cc1)c1ccc(O)cc1O
Met

Another molecule to check: O=C1C[C@@H](c2ccc(O)cc2)Oc2cc(O)cc(O)c21
Met

###

Hi there, I'd appreciate the recorded Median t max (range) for every entry that follows.
experiment: Randomized crossover quantitative trial: plasma pharmacokinetics of nine ingredients after rikkunshito 2.5, 5.0 or 7.5 g; details: rikkunshito 7.5 g single oral, n = 19; median (minimum–maximum)

# Median t max (range) lookup, item O=C1C[C@@H](c2ccc(O)cc2)Oc2cc(O)cc(O)c21 [Naringenin]
4.00 (2.00–6.00) h

Another compound to check: O=C(O)/C=C/C#CC#C/C=C/c1ccco1 [Atractylodin carboxylic acid]
0.250 (0.250–0.500) h

Another compound to check: C/C=C/C#CC#C/C=C/c1ccco1 [Atractylodin]
0.500 (0.250–1.00) h

Another compound to check: C=C(CC[C@@H](C(=O)O)[C@H]1[C@H](O)C[C@@]2(C)C3=C(CC[C@]12C)[C@@]1(C)CC[C@H](OC(C)=O)C(C)(C)[C@@H]1CC3)C(C)C [Pachymic acid]
6.00 (2.00–11.5) h

###

Hi there, I'd appreciate the recorded concentration at 2 h for every entry that follows.
assay: Exploratory trial: plasma concentration of rikkunshito ingredients after single oral rikkunshito 7.5 g; assay type: in vivo; details: human, plasma; 2 h after single oral rikkunshito 7.5 g; mean ± S.D., n = 4; read-out: Plasma concentration, 2 h
Give the value, in units of ng/mL, as a plain number.

# concentration at 2 h lookup, item COc1c(CC=C(C)C)c(O)cc2oc(=O)c(-c3ccc(O)cc3O)cc12 [Glycycoumarin]
0.00693

Another molecule to check: COc1ccc(-c2oc3c(OC)c(OC)c(OC)c(OC)c3c(=O)c2OC)cc1OC [Heptamethoxyflavone, 3,3′,4′,5,6,7,8-heptamethoxyflavone]
0.157

###

experiment: Exploratory trial: plasma concentration of rikkunshito ingredients after single oral rikkunshito 7.5 g; assay type: in vivo; settings: human, in vivo; 0 h (preadministration); single oral rikkunshito 7.5 g; mean ± S.D., n = 4; read-out: Plasma concentration, 0 h
endpoint label: concentration at 0 h (ng/mL)
Give the value, in units of ng/mL, as a plain number.

# concentration at 0 h lookup, item C/C=C/C#CC#C/C=C/c1ccco1
0.328

###

Test: Randomized crossover quantitative trial: plasma pharmacokinetics of nine ingredients after rikkunshito 2.5, 5.0 or 7.5 g
Conditions: human, in vivo, po, 7.5 g
Method: The first trial was a nonrandomized, open-label, one-period design. The second trial was a randomized, open-label, three-arm, three-period design (Fig 1). […] The safety endpoint was evaluated in all volunteers. […] In each stage during the 48-h period following rikkunshito administration, the physician monitored the patient for subjective symptoms, objective findings, swelling, body temperature (axillary), blood pressure (sitting), and pulse (sitting). […]
endpoint label: AUC(0-t)
Phrase the answer as number then unit, nothing more needed.

# AUC(0-t) lookup, item C/C=C/C#CC#C/C=C/c1ccco1
1.76 ng·h/mL
